- MEASURED_ON: GDP-bound KRAS wild-type protein (Homo sapiens)
- Sequence (P01116 whole entry): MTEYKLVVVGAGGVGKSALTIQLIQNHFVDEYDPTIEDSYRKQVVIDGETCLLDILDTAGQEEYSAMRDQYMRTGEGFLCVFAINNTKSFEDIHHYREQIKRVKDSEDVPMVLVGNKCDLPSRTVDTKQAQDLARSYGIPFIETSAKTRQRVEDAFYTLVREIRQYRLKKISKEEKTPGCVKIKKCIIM
- METHOD_DESCRIPTION: Binding to KRAS by surface plasmon resonance (SPR), Single Cycle Kinetics
- REPORTED_CONDITIONS: SPR Single Cycle Kinetics, GDP-bound KRAS wild-type protein, 1:1 binding model; read-out: KRAS KD
Where a SMILES comes first, the peptide text is derived from it. Bridges are numbered along the chain shown (N, C = ends). [ ]: non-standard residue; d: D form. hPhe(3-Cl-4-CF3) = N[C@@H](CCc1ccc(C(F)(F)F)c(Cl)c1)C(=O)O; NPrPhe(4-CF3) = CCCN[C@@H](Cc1ccc(C(F)(F)F)cc1)C(=O)O; NMeGly(cPent) = CN[C@H](C(=O)O)C1CCCC1; Pro(4,4-F2) = O=C(O)[C@@H]1CC(F)(F)CN1; NMeD = CN[C@@H](CC(=O)O)C(=O)O; NMeL = CN[C@@H](CC(C)C)C(=O)O; Ac5c = NC1(C(=O)O)CCCC1; NEtG = CCNCC(=O)O; Sar = CNCC(=O)O
QUANTITY_NAME: Kd (nM)
// note: answer is a bare numeric in nM

# input Would you mind telling me what Kd value was observed for CCCN1C(=O)CN(C)C(=O)CN(CC)C(=O)[C@H]([C@@H](C)CC)NC(=O)[C@H](CC(C)C)N(C)C(=O)C[C@@H](C(=O)N(C)C)N(C)C(=O)[C@H](C2CCCC2)N(C)C(=O)C2(CCCC2)NC(=O)[C@@H]2CC(F)(F)CN2C(=O)[C@H](CCc2ccc(C(F)(F)F)c(Cl)c2)NC(=O)CN(C)C(=O)[C@@H]1Cc1ccc(C(F)(F)F)cc1 [PP0425] ([NMeL]I[NEtG][Sar][NPrPhe(4-CF3)][Sar][hPhe(3-Cl-4-CF3)][Pro(4,4-F2)][Ac5c][NMeGly(cPent)][NMeD]-NMe2; lactam N-11) ?
# output 0.099

----------
- MEASURED_ON: GDP-bound KRAS wild-type protein (Homo sapiens)
- METHOD_DESCRIPTION: Binding to KRAS by surface plasmon resonance (SPR), Single Cycle Kinetics
- REPORTED_CONDITIONS: SPR Single Cycle Kinetics, GDP-bound KRAS wild-type protein, 1:1 binding model; read-out: KRAS KD
*1 amine or outer side, *2 acyl side, *3 side chain or, on linkers, in order; H or OH if unused. Where a SMILES comes first, the peptide text is derived from it. Bridges are numbered along the chain shown (N, C = ends). [ ]: non-standard residue; d: D form. The star is where a group is joined. hPhe(3-Cl-4-CF3) = N[C@@H](CCc1ccc(C(F)(F)F)c(Cl)c1)C(=O)O; NPrPhe(4-CF3) = CCCN[C@@H](Cc1ccc(C(F)(F)F)cc1)C(=O)O; X20 = Cc1ccc(C[C@@H](C(=O)[*:2])N(CC2CCCC2)[*:1])cc1; NMeGly(cPent) = CN[C@H](C(=O)O)C1CCCC1; NMeD = CN[C@@H](CC(=O)O)C(=O)O; NMeL = CN[C@@H](CC(C)C)C(=O)O; Morpholide = C1CN(*)CCO1; NMeA = CN[C@@H](C)C(=O)O; Ac5c = NC1(C(=O)O)CCCC1; Aze = O=C(O)[C@@H]1CCN1; Ac4c = NC1(C(=O)O)CCC1; Sar = CNCC(=O)O
QUANTITY_NAME: pKd
The value called pKd is obtained by taking minus log10 of the concentration in mol/L.

# input Would you mind telling me what pKd value was observed for `CCC[C@H]1C(=O)N[C@@H]([C@@H](C)CC)C(=O)N(C)CC(=O)N(C)[C@H]2C/C=C\CCN(C2=O)[C@@H](Cc2ccc(C(F)(F)F)cc2)C(=O)N(C)CC(=O)N[C@@H](CCc2ccc(C(F)(F)F)c(OC)c2)C(=O)N2C[C@H](OCC)C[C@H]2C(=O)NC2(CC(C)(C)C2)C(=O)N(C)[C@@H](CC2CC2)C(=O)N(C)[C@H](C(=O)N(C)C)CC(=O)N1C` ?
# output 9.05

# input Cool, now CCCN1C(=O)[C@@H]2CCN2C(=O)[C@H](C)N(C)C(=O)[C@H]([C@@H](C)CC)NC(=O)[C@H](CC(C)C)N(C)C(=O)C[C@@H](C(=O)N2CCOCC2)N(C)C(=O)[C@H](C2CCCC2)N(C)C(=O)C2(CCC2)NC(=O)[C@@H]2CCCN2C(=O)[C@H](CCc2ccc(C(F)(F)F)c(Cl)c2)NC(=O)CN(C)C(=O)[C@@H]1Cc1ccc(C(F)(F)F)cc1 [PP0198] ([NMeL]I[NMeA][Aze][NPrPhe(4-CF3)][Sar][hPhe(3-Cl-4-CF3)]P[Ac4c][NMeGly(cPent)][NMeD]-Morpholide; lactam N-11)
# output 9.72

# input Cool, now CC[C@H](C)[C@@H]1NC(=O)[C@H](CC(C)C)N(C)C(=O)C[C@@H](C(=O)N2CCOCC2)N(C)C(=O)[C@H](C2CCCC2)N(C)C(=O)C2(CCCC2)NC(=O)[C@@H]2CCCN2C(=O)[C@H](CCc2ccc(C(F)(F)F)c(Cl)c2)NC(=O)CN(C)C(=O)[C@H](Cc2ccc(C)cc2)N(CC2CCCC2)C(=O)CN(C)C(=O)CN(C)C1=O [PP0096] ([NMeL]I[Sar][Sar][X20][Sar][hPhe(3-Cl-4-CF3)]P[Ac5c][NMeGly(cPent)][NMeD]-Morpholide; lactam N-11)
# output 8.55
